# System: OVCAR-5 ovarian
# test-details: NCI tumour cell line growth inhibition, 48 h
metric: TGI

Look over these answered cases.
{"columns": ["molecule", "system-under-test", "TGI"],
 "data": [
  ["Cc1ccccc1NC(=O)C1C(=O)N(c2ccccc2C)C(=O)/C1=N\\NC(N)=O (stereo unspecified)", "OVCAR-5 ovarian", "> 100 µM"],
  ["CC1(C)CC(=O)C(C(=O)Nc2cccs2)=C(O)C1", "OVCAR-5 ovarian", "> 100 µM"],
  ["CC1(C)CC2=NO[Se]3=C2C(=NO3)C1", "OVCAR-5 ovarian", "20.5 µM"]
]}

The record that follows has no TGI shown yet.
Q: For "O=c1c(Oc2ccc(F)cc2F)cc2cnc(NC3CCOCC3)nc2n1C1CC1" , what is its reported TGI?
A: > 25 µM
